// provenance: patent US20250280696A1

Catalogue of compounds with associated Emission peak of the toluene solution
Assay: Absorption spectrum, emission spectrum and extinction coefficient in toluene solution
Assay type: physicochemical
Procedure: The extinction coefficients of the compounds and their absorption and emission spectrums in the solution were determined as follows: • 1. […] The absorption spectrum of the solution was measured by using an ultraviolet-visible spectrophotometer (Puxi T9s) to obtain the absorption peak wavelength. • 3. The absorbance of the maximum absorption peak divided by the amount of substance concentration is the molar extinction coefficient of the compound. • 4. […]
Don't forget the unit after the number, please.

Example compounds with recorded Emission peak of the toluene solution:
[
  {
    "Chem smiles": "CC(C)(C)c1ccc(N(c2ccccc2)c2cc(N(c3ccccc3)c3ccc(C(C)(C)C)cc3)c3ccc4c(N(c5ccccc5)c5ccc(C(C)(C)C)cc5)cc(N(c5ccccc5)c5ccc(C(C)(C)C)cc5)c5ccc2c3c54)cc1",
    "Result": "495 nm"
  },
  {
    "Chem smiles": "c1ccc(N(c2ccccc2)c2cc(N(c3ccccc3)c3ccccc3)c3ccc4c(N(c5ccccc5)c5ccccc5)cc(N(c5ccccc5)c5ccccc5)c5ccc2c3c54)cc1",
    "Result": "488 nm"
  }
]

Consider the additional compound presented here.
May I ask what Emission peak of the toluene solution has been recorded for Fc1ccc(N(c2ccccc2)c2cc(N(c3ccccc3)c3ccc(F)cc3)c3ccc4c(N(c5ccccc5)c5ccc(F)cc5)cc(N(c5ccccc5)c5ccc(F)cc5)c5ccc2c3c54)cc1 ?
493 nm

---

Experiment: Absorption spectrum, emission spectrum and extinction coefficient in toluene solution
Format: physicochemical
Conditions: at maximum absorption peak
Procedure: The extinction coefficients of the compounds and their absorption and emission spectrums in the solution were determined as follows: • 1. […] The absorption spectrum of the solution was measured by using an ultraviolet-visible spectrophotometer (Puxi T9s) to obtain the absorption peak wavelength. • 3. The absorbance of the maximum absorption peak divided by the amount of substance concentration is the molar extinction coefficient of the compound. • 4. […]
Catalogue of compounds with associated Molar extinction coefficient of the toluene solution

[
  {
    "Compound": "c1ccc(N(c2ccccc2)c2cc(N(c3ccccc3)c3ccccc3)c3ccc4c(N(c5ccccc5)c5ccccc5)cc(N(c5ccccc5)c5ccccc5)c5ccc2c3c54)cc1",
    "Result": "23000 L/mol"
  },
  {
    "Compound": "CC(C)(C)c1ccc2c(c1)B1c3c(c4c5c(c3-n3c6ccc(C(C)(C)C)cc6c6cc(C(C)(C)C)cc1c63)Oc1ccc(C(C)(C)C)cc1B5c1cc(C(C)(C)C)cc3c5cc(C(C)(C)C)ccc5n-4c13)O2 [Compound E4, reference compound]",
    "Result": "27000 L/mol"
  }
]

May I ask what Molar extinction coefficient of the toluene solution has been recorded for Fc1ccc(N(c2ccccc2)c2cc(N(c3ccccc3)c3ccc(F)cc3)c3ccc4c(N(c5ccccc5)c5ccc(F)cc5)cc(N(c5ccccc5)c5ccc(F)cc5)c5ccc2c3c54)cc1 ?
37000 L/mol

May I ask what Molar extinction coefficient of the toluene solution has been recorded for CCCCCCCCc1ccc(-c2cc(OC)ccc2N(c2cc(F)c(F)c(F)c2)c2cc(N(c3cc(F)c(F)c(F)c3)c3ccc(OC)cc3-c3ccc(CCCCCCCC)cc3)c3ccc4c(N(c5cc(F)c(F)c(F)c5)c5ccc(OC)cc5-c5ccc(CCCCCCCC)cc5)cc(N(c5cc(F)c(F)c(F)c5)c5ccc(OC)cc5-c5ccc(CCCCCCCC)cc5)c5ccc2c3c54)cc1 ?
70000 L/mol

May I ask what Molar extinction coefficient of the toluene solution has been recorded for CC(C)(C)c1ccc2c(c1)c1cc(C(C)(C)C)cc3c1n2-c1cccc2c1B3c1cc3c4ccccc4c4ccccc4c3c3c4c5c6ccccc6c6ccccc6c5ccc4n-2c13 [Compound E2, reference compound] ?
48000 L/mol

May I ask what Molar extinction coefficient of the toluene solution has been recorded for CCCCCCCCc1ccc(-c2cc(C(C)C)ccc2N(c2cc(F)c(F)c(F)c2)c2cc(N(c3cc(F)c(F)c(F)c3)c3ccc(C(C)C)cc3-c3ccc(CCCCCCCC)cc3)c3ccc4c(N(c5cc(F)c(F)c(F)c5)c5ccc(C(C)C)cc5-c5ccc(CCCCCCCC)cc5)cc(N(c5cc(F)c(F)c(F)c5)c5ccc(C(C)C)cc5-c5ccc(CCCCCCCC)cc5)c5ccc2c3c54)cc1 ?
59000 L/mol
